# Target Under Test: GlcNAc(b1-4)Gal(b1-4)GlcNAc
# Measurement Notes: glycan array binding signal (z-score within array); higher = stronger binding
# Measurement Conditions: glycan notation: IUPAC condensed, linker removed
Many of the other results were omitted from the sample, so the strongest signals are more common in it than they were.
Below, each entry is listed alongside its reported glycan array binding signal (z-score).
// no unit string in output, number only

[[record]]
binder = "BDCA2 ex-domain (Homo sapiens) (protein) MASHHHHHHIEGRGLNDIFEAQKIEWHESLVPRGSCPTPWTSFQSSCYFISTGMQSWTKSQKNCSVMGADLVVINTREEQDFIIQNLKRNSSYFLGLSDPGGRRHWQWVDQTPYNENVTFWHSGEPNNLDERCAIINFRSSEEWGWNDIHCHVPQKSICKMKKIY"
reading = 0.139


Query: I would be grateful if you could share the reported glycan array binding signal (z-score) for DBA (Dolichos biflorus) (protein) ANIQSFSFKNFNSPSFILQGDATVSSGKLQLTKVKENGFPLRFPSGRAFYSSPIQIYDKFTGAVASWATSFTVKISAPSKASFADGIAFALVPVGSEPRRNGGYLGVFDSDVYNNSAQTVAVEFDTLSNSGWDPSMKHIGIDVNSIKSIATVSWDLANGENAEILITYNAATSLLVVSLVHPSRRTSYILSERVDITNELPEYVGVGFSATTGLSEGYIETHDVLSWSFASRLPDDSTAEPLDLARYLVRNVL .
Result: -0.16
